Hey, just so you know, these numbers are from patent US20030144346A1.

biological target: type 1 human 5α-reductase (HRED1) (Homo sapiens, UniProt P18405); assay: Whole cell assay of 5α-reductase, type 1 isoenzyme; format: cell-based; design: expressed in transfected cells; host or cells: rat 1A cells infected with pMV7 retrovirus; details: whole cell assay; Table 7; read-out: HCRED1 IC50;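 note: intact rat 1A cells engineered to express the human type 1 5α-reductase isozyme serve as the enzyme source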
reported.metric: IC50 (µM)

Worked examples follow.
For the compound shown here, O=C(/C=C/c1ccc(O)c(O)c1)OCCc1ccccc1 [Caffeic Acid Phenethyl Ester] , give the reported IC50.
8

For the compound shown here, CCCCCCCCCCCCCCCCCC(=O)OC1Cc2c(O)cc(O)cc2OC1c1cc(O)c(O)c(O)c1 (stereo not shown) [HZIV 148] , give the reported IC50.
42

For the compound shown here, COc1cc(C(=O)C=Cc2ccc(N(C)C)cc2)cc(OC)c1OC [HZIV-82] , give the reported IC50.
3

For the compound shown here, COc1cc(C(=O)OC2Cc3c(O)cc(O)cc3OC2c2cc(O)c(O)c(O)c2)cc(OC)c1O (stereo not shown) [HZIV 75] , give the reported IC50.
43

P. CN(C)c1ccc(C(=O)OC2Cc3c(O)cc(O)cc3OC2c2cc(O)c(O)c(O)c2)cc1 (stereo not shown) [HZIV 92]
Q. CCCCC=CCCCCCCCC(=O)OC1Cc2c(O)cc(O)cc2OC1c1cc(O)c(O)c(O)c1 (stereo not shown) [HZIV 160]
# query: argmin of IC50 over P and Q Field: selected label. Fill in the label of the entry you choose.
Q
(Q: 7 µM, P: 64 µM)

* * *

Biological target: type 2 human 5α-reductase (HRED2) (Homo sapiens, UniProt P31213)
Sequence (P31213 1-254): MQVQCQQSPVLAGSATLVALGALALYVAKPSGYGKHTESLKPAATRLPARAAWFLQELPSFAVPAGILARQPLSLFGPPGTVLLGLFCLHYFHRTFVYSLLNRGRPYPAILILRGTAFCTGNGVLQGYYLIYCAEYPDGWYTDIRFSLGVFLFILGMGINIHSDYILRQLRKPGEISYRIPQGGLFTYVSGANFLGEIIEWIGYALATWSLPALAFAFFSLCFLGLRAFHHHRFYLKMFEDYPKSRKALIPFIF
Assay: Cell free assay of 5α-reductase, microsomes of rat 1A cells expressing type 2 isoenzyme (HRED2);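 note: labeled testosterone and its product dihydrotestosterone measured in microsomal reaction extracts via thin layer chromatography plus radioanalytic scanning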
Assay type: biochemical
Design: expressed in transfected cells; host or cells: rat 1A cells infected with pMV7 retrovirus; microsomes
Conditions: cell free assay; Table 2 catechols; read-out: HRED2 IC50
reported.metric: IC50

Worked examples follow.
For the compound shown here, COC(=O)c1cc(O)c(O)c(O)c1 [Methylgallate] , give the reported IC50.
> 100 µM

For the compound shown here, "O=c1oc2c(O)c(O)cc3c(=O)oc4c(O)c(O)cc1c4c23" , give the reported IC50.
> 100 µM

For the compound shown here, "Oc1cccc(O)c1O" , give the reported IC50.
> 100 µM

For the compound shown here, "O=c1ccc2c(-c3ccccc3S(=O)(=O)O)c3ccc(O)c(O)c3oc-2c1O" , give the reported IC50.
> 100 µM

Okay, now this compound:
For the compound shown here, "O=c1c(Br)cc2c(-c3ccccc3S(=O)(=O)O)c3cc(Br)c(O)c(O)c3oc-2c1O" , give the reported IC50.
84 µM

* * *

Target: type 1 human 5α-reductase (HRED1) (Homo sapiens, UniProt P18405)
Sequence (P18405 1-259): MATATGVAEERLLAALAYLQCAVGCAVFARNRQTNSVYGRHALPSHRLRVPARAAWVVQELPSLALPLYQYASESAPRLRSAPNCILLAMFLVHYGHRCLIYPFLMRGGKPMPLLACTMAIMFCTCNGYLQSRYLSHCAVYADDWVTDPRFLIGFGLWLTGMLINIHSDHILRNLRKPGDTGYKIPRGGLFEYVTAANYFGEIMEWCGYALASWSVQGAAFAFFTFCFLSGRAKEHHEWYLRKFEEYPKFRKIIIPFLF
Assay: Cell free assay of 5α-reductase, microsomes of rat 1A cells expressing type 1 isoenzyme (HRED1);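 note: microsomes from rat 1A cells expressing human type 1 5α-reductase, conversion of radiolabeled testosterone to dihydrotestosterone quantified by thin layer chromatography with radioanalytic scanning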
Type: biochemical
Set-up: expressed in transfected cells; host or cells: rat 1A cells infected with pMV7 retrovirus; microsomes
Settings: cell free assay; Table 2 catechols; read-out: HRED1 IC50
pIC50: −log10 of the molar value.
reported.metric: pIC50

Worked examples follow.
What is its pIC50 for type 1 human 5α-reductase (HRED1) (Homo sapiens, UniProt P18405)? Entry: CCCCCCCCCCCCOC(=O)c1cc(O)c(O)c(O)c1 [Dodecylgallate]
4.37

What is its pIC50 for type 1 human 5α-reductase (HRED1) (Homo sapiens, UniProt P18405)? Entry: "Oc1cc2c(cc1O)[C@@H]1c3ccc(O)c(O)c3OC[C@]1(O)C2"
4.08

What is its pIC50 for type 1 human 5α-reductase (HRED1) (Homo sapiens, UniProt P18405)? Entry: O=C1C=CC(=C(c2ccc(O)c(O)c2)c2ccccc2S(=O)(=O)O)C=C1O (mixture of isomers)
4.32

1. O=c1c(O)cccc2cc(O)c(O)c(O)c12
2. O=c1ccc2c(-c3ccccc3S(=O)(=O)O)c3ccc(O)c(O)c3oc-2c1O
# query: argmin of pIC50 over 1 and 2 Field: selected label. Fill in the label of the entry you choose.
1
(1: 4.52, 2: 4.82)
